# Assay system: BRM (Homo sapiens, UniProt P51531)
# Construct: made in house; host or cells: High Five insect cells
# Sequence (P51531 whole entry): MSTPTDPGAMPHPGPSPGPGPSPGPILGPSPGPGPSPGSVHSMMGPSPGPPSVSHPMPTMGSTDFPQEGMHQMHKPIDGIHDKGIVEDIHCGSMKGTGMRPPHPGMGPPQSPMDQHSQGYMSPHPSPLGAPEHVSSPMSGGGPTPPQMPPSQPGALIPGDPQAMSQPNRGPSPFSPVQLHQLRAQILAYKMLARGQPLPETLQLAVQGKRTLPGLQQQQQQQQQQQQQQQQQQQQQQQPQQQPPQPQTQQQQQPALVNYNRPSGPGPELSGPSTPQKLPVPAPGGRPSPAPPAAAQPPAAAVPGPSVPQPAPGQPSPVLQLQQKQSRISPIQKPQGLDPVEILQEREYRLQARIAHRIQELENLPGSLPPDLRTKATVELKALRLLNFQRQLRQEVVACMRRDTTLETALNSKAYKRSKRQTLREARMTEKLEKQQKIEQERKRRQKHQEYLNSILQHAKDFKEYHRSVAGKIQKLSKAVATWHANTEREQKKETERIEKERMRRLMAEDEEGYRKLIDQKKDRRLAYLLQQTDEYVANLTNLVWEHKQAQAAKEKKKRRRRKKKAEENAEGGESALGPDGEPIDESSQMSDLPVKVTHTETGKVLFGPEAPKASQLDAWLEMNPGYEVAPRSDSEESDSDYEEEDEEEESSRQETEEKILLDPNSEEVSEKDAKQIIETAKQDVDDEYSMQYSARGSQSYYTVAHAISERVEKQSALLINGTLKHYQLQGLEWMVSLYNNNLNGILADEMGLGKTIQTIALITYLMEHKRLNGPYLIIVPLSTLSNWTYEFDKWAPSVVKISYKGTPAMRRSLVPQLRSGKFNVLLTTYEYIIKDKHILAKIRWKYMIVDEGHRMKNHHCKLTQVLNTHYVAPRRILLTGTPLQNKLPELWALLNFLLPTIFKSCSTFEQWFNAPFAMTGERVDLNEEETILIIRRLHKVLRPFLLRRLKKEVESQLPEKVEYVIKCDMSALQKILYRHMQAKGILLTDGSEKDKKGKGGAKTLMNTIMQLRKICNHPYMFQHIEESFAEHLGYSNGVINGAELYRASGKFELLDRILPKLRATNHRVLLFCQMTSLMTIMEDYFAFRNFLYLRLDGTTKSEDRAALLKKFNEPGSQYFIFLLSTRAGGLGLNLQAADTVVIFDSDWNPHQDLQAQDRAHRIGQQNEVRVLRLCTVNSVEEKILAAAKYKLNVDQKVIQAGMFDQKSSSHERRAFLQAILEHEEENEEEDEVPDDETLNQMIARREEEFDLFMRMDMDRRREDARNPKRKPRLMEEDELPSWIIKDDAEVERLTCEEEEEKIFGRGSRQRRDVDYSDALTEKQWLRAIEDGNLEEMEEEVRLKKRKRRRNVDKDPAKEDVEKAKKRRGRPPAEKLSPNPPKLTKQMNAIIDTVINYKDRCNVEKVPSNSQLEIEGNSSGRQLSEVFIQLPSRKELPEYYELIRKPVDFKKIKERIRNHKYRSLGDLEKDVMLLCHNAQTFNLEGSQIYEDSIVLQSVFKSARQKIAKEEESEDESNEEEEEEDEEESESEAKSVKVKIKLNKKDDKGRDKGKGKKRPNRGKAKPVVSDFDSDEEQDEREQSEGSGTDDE
# Test details: ATPase catalytic activity assay (ADP-Glo), BRM
# Assay type: biochemical
# Experimental parameters: ATPase assay, selectivity BRG1/BRM, Table 10
Measure: Ratio (BRG1 IC50 (μM) divided by BRM IC50 (μM))

Compound: COCC1(c2cccc(-c3ccc4cnc(CNC(=O)c5cc(F)c6c(c5)S(=O)(=O)[C@@H](F)CCO6)cc4n3)n2)CC1
Result: 14.02
--
Compound: COc1nc([C@@H](C)C(F)F)ccc1-c1ccc2cnc(CNC(=O)c3cc(F)c4c(c3)S(=O)(=O)[C@@H](F)CCO4)cc2n1
Result: 29.97
--
Compound: Cc1cc(C(=O)NCc2cc3nc(-c4cccc(N5C[C@@H](C)O[C@@H](C)C5)n4)ccc3cn2)cc2c1OCC[C@H](F)S2(=O)=O
Result: 13.01
--
Compound: O=C(NCc1cc2nc(N3CCOc4cc(F)cnc43)ccc2cn1)c1cc(F)c2c(c1)S(=O)(=O)[C@@H](F)CCO2 [Compound 102]
Result: 26.75
--
Compound: O=C(NCc1cc2nc(N3CCOc4cc(N5CC(CF)C5)cnc43)ccc2cn1)c1cc(F)c2c(c1)S(=O)(=O)[C@@H](F)CCO2
Result: 16.34
--
Compound: O=C(NCc1cc2nc(N3CCOc4ccc(N5CC[C@H](F)C5)nc43)ccc2cn1)c1cc(F)c2c(c1)S(=O)(=O)[C@@H](F)CCO2
Result: 17.61
--
Compound: O=C(NCc1cc2nc(N3CCOc4ccc(C5CC5)nc43)ccc2cn1)c1ccc2c(c1)S(=O)(=O)[C@@H](F)COC2
Result: 13.44
--
Compound: O=C(NCc1cc2nc(-c3cccc(N4CCC4)n3)ccc2cn1)c1cc(F)c2c(c1)S(=O)(=O)[C@@H](F)CCO2
Result: 21.61
--
Compound: C[C@@H]1CCN1c1cnc2c(c1)OCCN2c1ccc2cnc(CNC(=O)c3cc(Cl)c4c(c3)S(=O)(=O)[C@@H](F)COC4)cc2n1
Result: 11.49
--
Compound: Cc1cc(C(=O)NCc2cc3nc(-c4ccc(OC(F)F)c(C5CC5)n4)ccc3cn2)cc2c1OCC[C@H](F)S2(=O)=O
Result: 22.15
--
Compound: O=C(NCc1cc2nc(N3CCOc4cc(N5CC[C@H](F)[C@@H](F)C5)cnc43)ccc2cn1)c1cc(F)c2c(c1)S(=O)(=O)[C@@H](F)CCO2
Result: 17.52
--
Compound: COc1cccc(-c2ccc3cnc(CNC(=O)c4cc(F)c5c(c4)S(=O)(=O)[C@@H](F)COC5)cc3n2)n1
Result: 22.02
--
Compound: O=C(NCc1cc2nc(N3CCOc4cc(C5CC5)cnc43)ccc2cn1)c1ccc2c(c1)S(=O)(=O)[C@@H](F)CCO2
Result: 16.77
--
Compound: C[C@@H]1CN(c2cncc(-c3ccc4cnc(CNC(=O)c5cc(F)c6c(c5)S(=O)(=O)[C@@H](F)CCO6)cc4c3)n2)C[C@H](C)O1
Result: 13.20
--
Compound: C[C@H]1C[C@@H]1c1cnc2c(c1)OCCN2c1ccc2cnc(CNC(=O)c3cc(F)c4c(c3)S(=O)(=O)[C@@H](F)CCO4)cc2n1
Result: 13.44
--
Compound: COc1nc(C(F)F)ccc1-c1ccc2cnc(CNC(=O)c3cc(C)c4c(c3)S(=O)(=O)[C@@H](F)COC4)cc2n1
Result: 17.91
--
Compound: O=C(NCc1cc2nc(N3CCOc4ccc([C@@H]5C[C@H]5F)nc43)ccc2cn1)c1cc(F)c2c(c1)S(=O)(=O)[C@@H](F)COC2
Result: 18.77
--
Compound: O=C(NCc1cc2nc(N3CCOc4ccc([C@H]5C[C@H]5F)nc43)ccc2cn1)c1cc(F)c2c(c1)S(=O)(=O)[C@@H](F)CCO2
Result: 19.61
--
Compound: O=C(NCc1cc2nc(-c3cccc(N4CCC4)n3)ccc2cn1)c1cc(F)c2c(c1)S(=O)(=O)[C@@H](F)COC2
Result: 19.81
--
Compound: Cc1ccc(-c2ccc3cnc(CNC(=O)c4cc(F)c5c(c4)S(=O)(=O)[C@@H](F)COC5)cc3n2)c(OC(F)F)n1
Result: 20.62
--
Compound: COc1nc([C@@H](C)F)ccc1-c1ccc2cnc(CNC(=O)c3cc(F)c4c(c3)S(=O)(=O)[C@@H](F)CCO4)cc2n1
Result: 27.15
--
Compound: COCc1ccnc2c1OCCN2c1ccc2cnc(CNC(=O)c3cc(F)c4c(c3)S(=O)(=O)[C@@H](F)CCO4)cc2n1
Result: 11.98
--
Compound: COc1nc([C@H](F)CF)ccc1-c1ccc2cnc(CNC(=O)c3cc(F)c4c(c3)S(=O)(=O)[C@@H](F)COC4)cc2n1
Result: 23.96
--
Compound: COc1nc([C@H](F)C(F)F)ccc1-c1ccc2cnc(CNC(=O)c3cc(F)c4c(c3)S(=O)(=O)[C@@H](F)CCO4)cc2n1
Result: 11.77
--
Compound: COc1nc(CC(F)F)ccc1-c1ccc2cnc(CNC(=O)c3cc(F)c4c(c3)S(=O)(=O)[C@@H](F)CCO4)cc2n1
Result: 23.12

###

Quick list: Ratio (MDA-MMTV IC50 (μM) divided by A549-MMTV IC50 (μM)) per entry.
# Test system: BRM-dependent transcription (BRG1 mutant lung cancer cell line A549)
# Test details: BRM-dependent transcription, MMTV luciferase reporter in BRG1 mutant A549 cells
# Type: cell-based
# Experimental parameters: MMTV luciferase reporter cell lines, selectivity BRG1/BRM, Table 11
Measure: Ratio (MDA-MMTV IC50 (μM) divided by A549-MMTV IC50 (μM))

Compound: CCOc1nc(C(F)F)ccc1-c1ccc2cnc(CNC(=O)c3cc(Cl)c4c(c3)S(=O)(=O)[C@@H](F)COC4)cc2n1
Result: 31.77
//
Compound: CCOc1nc([C@H](F)CF)ccc1-c1ccc2cnc(CNC(=O)c3cc(C(F)F)c4c(c3)S(=O)(=O)[C@@H](F)COC4)cc2n1 [Compound 460]
Result: 41.47
//
Compound: O=C(NCc1cc2nc(-c3cccc(C4CC4(F)F)n3)ccc2cn1)c1cc(F)c2c(c1)S(=O)(=O)[C@@H](F)CCO2 (stereo partly shown)
Result: 22.47
//
Compound: O=C(NCc1cc2nc(-c3ccc([C@H](F)CF)nc3OC(F)F)ccc2cn1)c1cc(F)c2c(c1)S(=O)(=O)[C@@H](F)CCO2
Result: 24.22
//
Compound: O=C(NCc1cc2nc(-c3ccc(OC(F)F)c([C@H]4CC4(F)F)n3)ccc2cn1)c1cc(Cl)c2c(c1)S(=O)(=O)[C@@H](F)COC2
Result: 22.11
//
Compound: COc1ccc(-c2ccc3cnc(CNC(=O)c4cc(Br)c5c(c4)S(=O)(=O)[C@@H](F)COC5)cc3n2)nc1C1CC1
Result: 53.94
//
Compound: O=C(NCc1cc2nc(-c3cccc(C4CC4)n3)ccc2cn1)c1cc(Cl)c2c(c1)S(=O)(=O)[C@@H](F)CCO2
Result: 30.81
//
Compound: COc1ccc(-c2ccc3cnc(CNC(=O)c4cc(Cl)c5c(c4)S(=O)(=O)[C@@H](F)CCO5)cc3n2)nc1C1CC1(F)F (stereo partly shown)
Result: 26.85
//
Compound: COCCOc1cnc2c(c1)OCCN2c1ccc2cnc(CNC(=O)c3cc(Cl)c4c(c3)S(=O)(=O)[C@@H](F)CCO4)cc2n1
Result: 22.34
//
Compound: O=C(NCc1cc2nc(-n3cc(F)c(OC(F)F)n3)ccc2cn1)c1cc(C(F)F)c2c(c1)S(=O)(=O)[C@@H](F)COC2
Result: 32.01
//
Compound: O=C(NCc1cc2nc(-c3ccc(C(F)F)c(C4CC4(F)F)n3)ccc2cn1)c1cc(F)c2c(c1)S(=O)(=O)[C@@H](F)CCO2 (stereo partly shown)
Result: 24.67
//
Compound: [2H]C([2H])([2H])Oc1ccc(-c2ccc3cnc(CNC(=O)c4cc(Cl)c5c(c4)S(=O)(=O)[C@@H](F)COC5)cc3n2)nc1C1CC1(F)F (stereo partly shown) [Compound 506]
Result: 42.09
//
Compound: O=C(NCc1cc2nc(-c3cccc(C(F)F)n3)ccc2cn1)c1cc(F)c2c(c1)S(=O)(=O)[C@@H](F)CCO2
Result: 26.38

###

Measured pIC50 (BRM (Homo sapiens, UniProt P51531))
pIC50: −log10 of the molar value.

Smiles repr: O=C(NCc1cc2nc(N3CCOc4ccc(N5CC(F)(F)C5)nc43)ccc2cn1)c1cc(F)c2c(c1)S(=O)(=O)[C@@H](F)CCO2
pIC50: 8.10

Smiles repr: O=C(NCc1cc2nc(-c3cccc(C4CC4)n3)ccc2cn1)c1cc(F)c2c(c1)S(=O)(=O)[C@@H](F)CCO2
pIC50: 8.10

Smiles repr: O=C(NCc1cc2nc(N3CCOc4ccc(C5CC5)nc43)ccc2cn1)c1cc(F)c2c(c1)S(=O)(=O)[C@@H](F)COC2
pIC50: 8.55

Smiles repr: [2H]C1([2H])OC([2H])([2H])[C@H](F)S(=O)(=O)c2cc(C(=O)NCc3cc4nc(-c5ccc(C(F)F)nc5OC)ccc4cn3)cc(F)c21
pIC50: 8.80

Smiles repr: COc1nc([C@@H](C)F)ccc1-c1ccc2cnc(CNC(=O)c3cc(F)c4c(c3)S(=O)(=O)[C@@H](F)CCO4)cc2n1
pIC50: 8.08

Smiles repr: O=C(NCc1cc2nc(N3CCCc4cc(N5C[C@@H](F)[C@H](F)C5)cnc43)ccc2cn1)c1cc(F)c2c(c1)S(=O)(=O)[C@@H](F)CCO2
pIC50: 8.28

Smiles repr: CCOCc1cnc2c(c1)OCCN2c1ccc2cnc(CNC(=O)c3cc(F)c4c(c3)S(=O)(=O)[C@@H](F)CCO4)cc2n1
pIC50: 8.30

Smiles repr: COCCN(C)c1cnc2c(c1)CCCN2c1ccc2cnc(CNC(=O)c3cc(F)c4c(c3)S(=O)(=O)[C@@H](F)CCO4)cc2n1
pIC50: 8.31

Smiles repr: O=C(NCc1cc2nc(N3CCOc4cc(N5CC[C@H]5CF)cnc43)ccc2cn1)c1cc(Br)c2c(c1)S(=O)(=O)[C@@H](F)CCO2
pIC50: 7.93

Smiles repr: COCc1cc2c(c(F)c1Cl)N(c1ccc3cnc(CNC(=O)c4cc(F)c5c(c4)S(=O)(=O)[C@@H](F)CCO5)cc3n1)CCO2
pIC50: 8.89

Smiles repr: O=C(NCc1cc2nc(-c3cccc([C@@H]4CC4(F)F)n3)ccc2cn1)c1cc(F)c2c(c1)S(=O)(=O)[C@@H](F)COC2
pIC50: 8.10

Smiles repr: O=C(NCc1cc2nc(N3CCOc4cc(N5C[C@@H](F)[C@@H](F)C5)cnc43)ccc2cn1)c1cc(F)c2c(c1)S(=O)(=O)[C@@H](F)CCO2
pIC50: 8.37
